- measured-target: human OX2R (Homo sapiens, UniProt O43614)
- Construct: expressed in transfected cells; host or cells: CHO (Chinese hamster ovary) cells, line CHOOX2R, co-expressing NFAT-luciferase
- Sequence (O43614 whole entry): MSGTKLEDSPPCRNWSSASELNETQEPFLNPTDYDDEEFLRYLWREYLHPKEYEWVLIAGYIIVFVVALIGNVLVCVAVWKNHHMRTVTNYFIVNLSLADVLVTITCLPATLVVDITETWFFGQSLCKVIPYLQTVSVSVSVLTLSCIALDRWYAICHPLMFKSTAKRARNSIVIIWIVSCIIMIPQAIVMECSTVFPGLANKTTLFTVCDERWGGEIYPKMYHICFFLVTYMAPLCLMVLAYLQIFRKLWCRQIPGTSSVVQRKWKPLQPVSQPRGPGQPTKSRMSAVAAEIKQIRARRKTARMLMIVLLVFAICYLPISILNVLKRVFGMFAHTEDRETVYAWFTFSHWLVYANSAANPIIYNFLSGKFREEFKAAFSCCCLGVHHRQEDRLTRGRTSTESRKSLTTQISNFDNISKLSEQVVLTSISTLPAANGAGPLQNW
- assay-method-text: Agonist activity against OX2R: intracellular calcium (Fura-2AM, FDSS7000) in CHOOX2R cells
- Format: cell-based
- condition-parameters: 10 μM test compound; relative to orexin-A as full agonist (100%)
property-label: Response (%) OX2R

- COc1ccc(-c2cccc(C(=O)N(C)C)c2)cc1S(=O)(=O)Nc1cccc(NC(=O)Nc2ccc(C)cc2)c1: 82
- COc1ccc(-c2cccc(C(=O)N(C)C)c2)cc1S(=O)(=O)Nc1cccc(Nc2cccc(C(F)(F)F)c2)c1: 63
- COc1ccc(-c2cccc(C(=O)N(C)C)c2)cc1S(=O)(=O)Nc1cccc(NCc2ccc(C)cc2)c1: 92
- COc1ccccc1CNc1cccc(NS(=O)(=O)c2cc(-c3cccc(C(=O)N(C)C)c3)ccc2OC)c1: 54
- COc1ccc(-c2cccc(C(=O)N(C)C)c2)cc1S(=O)(=O)Nc1cccc(NC(=O)Nc2cccc(C(=O)O)c2)c1: 14
- COc1ccc(-c2cccc(C(=O)N(C)C)c2)cc1S(=O)(=O)Nc1cccc(NC(=O)Nc2ccccc2)c1: 81
- COc1ccc(-c2cccc(C(=O)N(C)C)c2)cc1S(=O)(=O)Nc1cccc(NC(=O)C[S+]([O-])C(c2ccccc2)c2ccccc2)c1 (centres unmarked): 109
- COc1ccc(-c2cccc(C(=O)N(C)C)c2)cc1S(=O)(=O)Nc1cccc(Nc2ccccc2)c1: 39
- COc1ccc(-c2cccc(C(=O)N(C)C)c2)cc1S(=O)(=O)Nc1cccc(NC(=O)c2ccc3ccccc3c2)c1: 47
- COc1ccc(-c2cccc(C(=O)N(C)C)c2)cc1S(=O)(=O)Nc1cccc(Nc2c(Nc3cccc(C)c3)c(=O)c2=O)c1: 23
- COc1ccc(-c2cccc(C(=O)N(C)C)c2)cc1S(=O)(=O)Nc1cccc(NC(=O)Nc2ccccn2)c1: 57
- COc1ccc(-c2cccc(C(=O)N(C)C)c2)cc1S(=O)(=O)Nc1cccc(NC(=O)Nc2cccc([N+](=O)[O-])c2)c1: 60
- COc1ccccc1C(=O)Nc1cccc(NS(=O)(=O)c2cc(-c3cccc(C(=O)N(C)C)c3)ccc2OC)c1: 44
- COc1ccc(-c2cccc(C(=O)N(C)C)c2)cc1S(=O)(=O)Nc1cccc(NC(=N)Nc2ccccc2)c1: 99

Cited source for all entries: patent US10351522B2
